# experiment-description: qHTS assay to identify small molecule antagonists of the estrogen receptor alpha (ER-alpha) signaling pathway using the BG1 cell line in the presence of 0.1 nM 17-beta-estradiol - cell viability counter screen (AID 1259241); also: nearly all actives have a fitted effect of over 40% in size
# assay-setup: VM7Luc4E2 (BG1) viability, CellTiter-Fluor protease, 22 h, 0.1 nM estradiol agonist added; series mostly up to 92.4 µM
Records with an inconclusive call do not appear. Active and inactive are the calls of the source. Calls follow the shape of the dose curve; as a rule, active = well fitted cell-killing curve with a large enough effect in the repeat runs; inconclusive = weak or mixed curves, or effect the other way; inactive = flat fitted curve, though single readings scatter.
Labels: 1 for active, -1 for inactive

compound=O=C(O)c1cc(=O)c2ccccc2o1 assigned_class=-1
compound="CCCCCCCCCCCC(=O)OCC(C)OC(=O)CCCCC(=O)O (stereo not given)" assigned_class=-1
compound=c1cnccn1 assigned_class=-1
compound=Cc1ccc(O)c(N)c1 assigned_class=-1
compound=CCN(CC)c1ccc2c(-c3ccc(S(=O)(=O)O)cc3S(=O)(=O)[O-])c3ccc(=[N+](CC)CC)cc-3oc2c1 assigned_class=1
compound=CN(C)CCN1CCN(c2cccc(Cl)c2)C1=O assigned_class=-1
compound=CC(=O)OCC=C(C)C assigned_class=-1
compound=C#C[C@]1(OC(C)=O)CC[C@H]2[C@@H]3CCC4=C[C@@H](OC(C)=O)CC[C@@H]4[C@H]3CC[C@@]21C assigned_class=-1
compound=Cc1c(C)c2c(c(C)c1OC(=O)c1cccnc1)CC[C@@](C)(CCC[C@H](C)CCC[C@H](C)CCCC(C)C)O2 assigned_class=-1
compound=Cc1c(N)cccc1C(F)(F)F assigned_class=-1
compound=CCOC(=O)Cn1cccc1-c1nc(-c2ccc(OC)cc2)c(-c2ccc(OC)cc2)s1 assigned_class=-1
compound=COc1ccc2c(c1)c(CC(=O)OC/C=C(\C)CC/C=C(\C)CCC=C(C)C)c(C)n2C(=O)c1ccc(Cl)cc1 assigned_class=-1
compound=OCC(F)(F)F assigned_class=-1
compound=O=C(/C=C/c1ccc(O)c(O)c1)O[C@@H](C(=O)O)[C@@H](OC(=O)/C=C/c1ccc(O)c(O)c1)C(=O)O assigned_class=-1
compound=C=Cc1cccc(C)c1 assigned_class=-1
compound=CCCCCCCCCCOC(=O)c1ccccc1C(=O)OCCCCCCCC assigned_class=-1
compound="C=CC(C)(CCC=C(C)C)OC=O (stereo not given)" assigned_class=-1
compound=O=C(O)[C@H](O)[C@@H](O)[C@H](O[C@@H]1O[C@H](CO)[C@H](O)[C@H](O)[C@H]1O)[C@H](O)CO assigned_class=-1
compound=CC(C)(C)c1csc(-c2cc3cc(OCc4ccccc4CC(=O)O)ccc3o2)n1 assigned_class=-1
compound="CC(=O)Oc1cc2c(s1)CCN(C(C(=O)C1CC1)c1ccccc1F)C2 (stereo not given)" assigned_class=-1
compound=Cc1cccc(C)c1NC(=O)c1ccc(N)cc1 assigned_class=-1
compound=CCCCC/C=C\C/C=C\CCCCCCCC(=O)O assigned_class=-1
compound=c1ccc(SSc2ccccc2)cc1 assigned_class=-1
compound=CN(C)Cc1ccccc1O assigned_class=-1
compound=CCCCOC(=O)CO assigned_class=-1
compound=S=c1nccc[nH]1 assigned_class=-1
compound=CCn1c2ccccc2c2cc([N+](=O)[O-])ccc21 assigned_class=-1
compound=CC(C)CCOC(=O)/C=C/c1ccccc1 assigned_class=-1
compound=O=S(=O)(O)c1ccc(N=Nc2c(O)ccc3ccccc23)cc1 assigned_class=1
compound=Cc1ccc(C(=O)O)cc1 assigned_class=-1
compound=CCCC1CCC(=O)CC1 assigned_class=-1
compound="COC(=O)C1=C(C)NC(C)=C(C(=O)OCCN2CCN(C(c3ccccc3)c3ccccc3)CC2)C1c1cccc([N+](=O)[O-])c1 (stereo not given)" assigned_class=-1
compound="CC(C)(c1cc(Br)c(OCC(Br)CBr)c(Br)c1)c1cc(Br)c(OCC(Br)CBr)c(Br)c1 (stereo not given)" assigned_class=-1
compound=CCCCCC/C=C\CCCCCCCC(=O)O assigned_class=-1
compound=Cc1c(C)c2c(c(C)c1O)CC[C@@](C)(CCC[C@H](C)CCC[C@H](C)CCCC(C)C)O2 assigned_class=-1
compound=O=C(c1ccc(O)c(O)c1)c1ccc(O)cc1O assigned_class=-1
compound=CC(C)CCCCCOC(=O)CCS assigned_class=-1
compound="OC1CCCc2ccccc21 (stereo not given)" assigned_class=-1
compound=C=C(C)c1cccc(C(=C)C)c1 assigned_class=-1
compound=Nc1nc(N)nc(-c2cc(Cl)ccc2Cl)n1 assigned_class=-1
compound=CNc1ccc([N+](=O)[O-])cc1 assigned_class=1
compound=O=C(O)c1ccc2cc(C(=O)O)ccc2c1 assigned_class=-1
compound="CCCCCC(C)OC(=O)COc1ccc(Cl)c2cccnc12 (stereo not given)" assigned_class=-1
compound=COc1ccc(-c2coc3cc(O)ccc3c2=O)cc1 assigned_class=-1
compound="OC12N=C(c3ccccc3)SC1Cc1cc(Cl)ccc12 (stereo not given)" assigned_class=-1
compound=CCCC(=O)OCCc1ccccc1 assigned_class=-1
compound=C=C(CC)C(=O)c1ccc(OCC(=O)O)c(Cl)c1Cl assigned_class=-1
compound=COC(=O)c1ccccc1C assigned_class=-1
compound=O=C1OC2(c3ccc(O)cc3Oc3cc(O)ccc32)c2ccc(N=C=S)cc21 assigned_class=-1
compound=CN(C)C(=O)COC(=O)Cc1ccc(OC(=O)c2ccc(N=C(N)N)cc2)cc1 assigned_class=-1

###

# experiment-description: qHTS RealTime-Glo MT Cell Viability Assay in HEK293 cells - 8 hour (AID 1224887); also: top concentration of the series differs between compounds; % is scaled to controls: 0 for no effect and ±100 for the full control effect; nearly all actives have a fitted effect of over 50% in size
# assay-setup: RealTime-Glo luminescence; series mostly up to 76.8 µM
Results filed as inconclusive are left out. Activity calls are given as the source filed them. The call rests on the fitted dose curve; in most records, active means well fitted cell-killing curve with a large enough effect in the repeat runs; inconclusive means weak or mixed curves, or effect the other way; inactive means flat fitted curve, though single readings scatter.
measure: activity change, negative = cytotoxicity

compound_structure=O=C(O)CN(CCN(CC(=O)O)CC(=O)O)CC(=O)O assay_value="-1.21% [at 2.72 µM] (inactive)"
compound_structure=C[C@H]1NCc2cc(-c3ccc4c(=O)c(C(=O)O)cn(C5CC5)c4c3OC(F)F)ccc21 assay_value="-3.93% [at 15.8 µM] (inactive)"
compound_structure=COc1cc2nc(N3CCN(C(=O)c4ccco4)CC3)nc(N)c2cc1OC assay_value="-21.9% [at 15.8 µM] (inactive)"
compound_structure=CC(C)(C)CC(C)(C)c1ccc(Nc2ccc(C(C)(C)CC(C)(C)C)cc2)cc1 assay_value="-20.4% [at 6.97 µM] (inactive)"
compound_structure=C[C@@H](O)[C@H](N)C(=O)O assay_value="-0.878% [at 15.8 µM] (inactive)"

###

# experiment-description: qHTS RealTime-Glo MT Cell Viability Assay in HEK293 cells - 40 hour (AID 1224874); also: potency is read from the fitted curve at half-maximal effect; nearly all actives have a fitted effect of over 50% in size
# assay-setup: RealTime-Glo luminescence
Inconclusive results are not listed. Calls of active or inactive are those of the source. Calls come from the whole dose curve; as a rule, active = well fitted cell-killing curve with a large enough effect in the repeat runs; inconclusive = weak or mixed curves, or effect the other way; inactive = flat fitted curve, though single readings scatter.
measure: Potency

compound_structure=CC(C)=CCC1=C(O)c2ccccc2C(=O)C1=O assay_value="24.4 µM (active)"
compound_structure=CCCc1ccc(OCC(=O)N2CCN(C(=O)COc3ccc(CCC)cc3OC)CC2)c(OC)c1 assay_value="8.49 µM (active)"
compound_structure=Nc1ccc(Oc2ccc(Cl)cc2)cc1 assay_value="21.4 µM (active)"
compound_structure=O=C1CCc2ccc(OCCCCN3CCN(c4cccc(Cl)c4Cl)CC3)cc2N1 assay_value="9.52 µM (active)"
compound_structure=COc1ccc2cc1Oc1ccc(cc1)C[C@H]1c3c(cc4c(c3Oc3cc5c(cc3OC)CCN(C)[C@@H]5C2)OCO4)CCN1C assay_value="6.74 µM (active)"

###

# experiment-description: qHTS RealTime-Glo MT Cell Viability Assay in HEK293 cells - 32 hour (AID 1224868); also: nearly all actives have a fitted effect of over 50% in size
# assay-setup: RealTime-Glo luminescence; series mostly up to 76.8 µM
Results filed as inconclusive are left out. Active and inactive are the calls of the source. Calls follow the shape of the dose curve; as a rule, active = well fitted cell-killing curve with a large enough effect in the repeat runs; inconclusive = weak or mixed curves, or effect the other way; inactive = flat fitted curve, though single readings scatter.
Outcome codes: yes (1) = active, no (0) = inactive

compound=Oc1c(I)cc(Cl)c2cccnc12 assigned_class="yes (1)"
compound=ClCCl assigned_class="no (0)"
compound=CCC(=O)OC(=O)CC assigned_class="no (0)"
compound=Clc1ccnc(Cl)n1 assigned_class="no (0)"
compound=O=C(O)c1cc(N=Nc2ccc([N+](=O)[O-])cc2)ccc1O assigned_class="no (0)"
compound="CN1CCN2c3ccccc3Cc3ccccc3C2C1 (centres undefined)" assigned_class="no (0)"
compound=O=C(O)c1cc(=O)c2ccccc2o1 assigned_class="no (0)"
compound="CC(C)(c1cc(Br)c(OCC(Br)CBr)c(Br)c1)c1cc(Br)c(OCC(Br)CBr)c(Br)c1 (centres undefined)" assigned_class="no (0)"
compound=COc1ccc(NC(=O)CC(C)=O)cc1 assigned_class="no (0)"
compound=COc1cccc(OC)c1C(=O)O assigned_class="no (0)"
compound=CC(C)CCOC(=O)/C=C/c1ccccc1 assigned_class="no (0)"
compound=CCCc1ccc(OCC(=O)N2CCN(C(=O)COc3ccc(CCC)cc3OC)CC2)c(OC)c1 assigned_class="yes (1)"
compound=C=C(C)c1cccc(C(=C)C)c1 assigned_class="no (0)"
compound=Cl[Si](Cl)(c1ccccc1)c1ccccc1 assigned_class="no (0)"
